Sourced from ChEMBL document CHEMBL5154747

# CC50 values compiled below
# System: SK-MEL-28
# Run Description: Anticancer activity against human SK-MEL-28 cells assessed as cell growth inhibition incubated for 48 hrs by SRB assay
# Type: functional
# Details: read-out: LC50 (the source's name)
Numeric answer only, unit µM assumed.

A selection of reference data follows.
>>> df
                            molecule_smiles  measurement_name  reported_measurement
0  NS(=O)(=O)c1ccc(Nc2nc(N/N=C/c3ccc(C(F)(F)F)cc3)nc(Nc3ccccc3)n2)cc1              CC50                  26.3
1  NS(=O)(=O)c1ccc(Nc2nc(N/N=C/c3ccccn3)nc(Nc3ccccc3)n2)cc1              CC50                  6.19

Okay, next one:
Measured CC50, Cc1nn(-c2ccccc2)cc1/C=N/Nc1nc(Nc2ccccc2)nc(Nc2ccc(S(N)(=O)=O)cc2)n1 : 6.64
